# Study system: ABHD6 (Mus musculus, UniProt Q8R2Y0)
# Sequence (Q8R2Y0 1-336): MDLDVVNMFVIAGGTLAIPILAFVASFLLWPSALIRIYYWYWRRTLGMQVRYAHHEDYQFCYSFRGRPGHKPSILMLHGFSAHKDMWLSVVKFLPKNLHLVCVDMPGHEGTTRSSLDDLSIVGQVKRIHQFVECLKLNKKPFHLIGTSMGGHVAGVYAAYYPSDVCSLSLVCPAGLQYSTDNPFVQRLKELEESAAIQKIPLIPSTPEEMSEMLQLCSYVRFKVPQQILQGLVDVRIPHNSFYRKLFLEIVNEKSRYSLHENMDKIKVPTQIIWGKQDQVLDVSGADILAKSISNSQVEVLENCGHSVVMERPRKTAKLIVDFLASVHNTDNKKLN
pIC50: −log10 of the molar value.
Exercise: for every item that follows, state its recorded pIC50.

The molecule listed as O=C(OC(C(F)(F)F)C(F)(F)F)N1CCC2(CCCN2C(=O)c2ccc(C(F)(F)F)cc2)CC1 [Example 83] has a reported pIC50 of 6.00 to 7.00

CN1CCCC12CCN(c1cc(C(F)(F)F)ccc1CN1CCN(C(=O)OC(C(F)(F)F)C(F)(F)F)CC1)CC2 [Example 215] has a reported pIC50 of < 6.00

pIC50 measured on CN1CC2CN(c3cc(Cl)ccc3CN3CCN(C(=O)OC(C(F)(F)F)C(F)(F)F)CC3)CC2C1 (centres unmarked) [Example 206] = < 6.00

Record O=C(O)CN1CCN(c2cc(C(F)(F)F)ccc2CN2CCCC23CCN(C(=O)OC(C(F)(F)F)C(F)(F)F)CC3)CC1 [Example 3] . Reported pIC50: < 6.00

pIC50 recorded for this molecule, CCN1CC2(CCN(c3cc(C(F)(F)F)ccc3CN3CCN(C(=O)OC(C(F)(F)F)C(F)(F)F)CC3)C2)C1 [Example 184] , is < 6.00

Briefly, pIC50 measured for CS(=O)(=O)N1CCC2(CCN(c3cc(C(F)(F)F)ccc3CN3CCN(C(=O)OC(C(F)(F)F)C(F)(F)F)CC3)C2)CC1 [Example 196] : < 6.00

In plain terms, CC(=O)N1CC2CN(c3cc(C(F)(F)F)ccc3CN3CCN(C(=O)OC(C(F)(F)F)C(F)(F)F)CC3)CC2C1 (centres unmarked) [Example 200] has a documented pIC50 of < 6.00

// pIC50 lookup, molecule = CN1CCCC12CCN(c1cc(Cl)ccc1CN1CCN(C(=O)OC(C(F)(F)F)C(F)(F)F)CC1)CC2 [Example 214] , result: < 6.00

Query CS(=O)(=O)N1CCC2(CCN(c3cc(C(F)(F)F)ccc3CN3CCN(C(=O)OC(C(F)(F)F)C(F)(F)F)CC3)CC2)C1 [Example 185] yields pIC50 of < 6.00

For record CC(=O)N1CCC2(CC1)CCN(c1cc(C(F)(F)F)ccc1CN1CCN(C(=O)OC(C(F)(F)F)C(F)(F)F)CC1)C2 [Example 197] the listed pIC50 is < 6.00

Entry CC(=O)N1CCN(c2cccc(Cl)c2CN2CC3(CCN(C(=O)OC(C(F)(F)F)C(F)(F)F)CC3)C2)CC1 [Example 49] , pIC50 reported as > 7.00

Measured pIC50 of CS(=O)(=O)N1CCN(c2cccc(C(F)(F)F)c2CN2CC3(CCN(C(=O)OC(C(F)(F)F)C(F)(F)F)CC3)C2)CC1 [Example 53] : 6.00 to 7.00

For reference, reported pIC50 for CC(=O)N1CCC2(CC1)CN(c1cc(C(F)(F)F)ccc1CN1CCN(C(=O)OC(C(F)(F)F)C(F)(F)F)CC1)C2 [Example 199] stands at < 6.00

The reported value for O=C(OC(C(F)(F)F)C(F)(F)F)N1CC2(CCN(Cc3c(N4CC5COCC5C4)cccc3C(F)(F)F)CC2)C1 (centres unmarked) [Example 33] in terms of pIC50 is 6.00 to 7.00

CC(=O)N1CC2(CCN(c3cc(Cl)ccc3CN3CCN(C(=O)OC(C(F)(F)F)C(F)(F)F)CC3)CC2)C1 [Example 213] yielded pIC50 of < 6.00

// field: pIC50; key: O=C(OC(C(F)(F)F)C(F)(F)F)N1CCC2(CCN(Cc3ccc(Cl)cc3N3CCC(F)CC3)CC2)C1 [Example 28] ; value = < 6.00

The recorded pIC50 for O=C(OC(C(F)(F)F)C(F)(F)F)N1CCC2(CCN(Cc3ccc(C(F)(F)F)cc3N3CCCCC3)CC2)C1 [Example 187] is < 6.00
